tested on: SK-OV-3; experiment: NCI tumour cell line growth inhibition, 48 h
Active and inactive are the calls of the source. No stated cut-off is given here; in the data, active = GI50 up to about 1.1 µM and inactive = higher.
propertyName: GI50

Item Cc1ccc(/N=N/C(C2=NC(=O)CS2)c2nc3ccccc3[nH]2)cc1 (stereo not given) ; assay system SK-OV-3; GI50 reported as > 100 µM (inactive)

The reported SK-OV-3 GI50 of COc1cc2c3c4c1OCc1c5c(cc(c1-4)CC3[N+](C)(C)CC2)OCO5 (stereo not given) is > 100 µM (inactive)

Measured GI50 for this entry COc1nc(N)c(/N=C/C(OC(C)=O)C(OC(C)=O)C(COC(C)=O)OC(C)=O)c(=O)n1C (stereo not given) on SK-OV-3: > 100 µM (inactive)

# "Cc1ccc(/C=C/C(=N/NC(=O)N/N=C(/C=C/c2ccc(C)cc2)C(C)(C)CN2CCCCC2)C(C)(C)CN2CCCCC2)cc1" with SK-OV-3: GI50 is 1.77 µM (inactive)

SK-OV-3 data for "CCOC(=O)N1CCN(Cc2cc(=O)n3cc(C)ccc3n2)CC1" ; its GI50: > 100 µM (inactive)

====

system: Malme-3M; assay: NCI tumour cell line growth inhibition, 48 h
Calls of active or inactive are those of the source. Cut-off read from the data, not from the text of the source: active = GI50 up to about 1.1 µM and inactive = higher.
propertyName: GI50

"CC(C)C(O)(C(C)C)C(C)C" has a reported GI50 of > 100 µM (inactive)

// field: GI50; key: "CC(=O)Oc1ccc(CO)cc1OC(C)=O" ; value = > 100 µM (inactive)

// GI50 value for CN1c2c(O)nc(N)nc2NCC1CCNc1ccc(C(=O)NC(CCC(=O)O)C(=O)O)cc1 (stereo not drawn) : 1410 µM (inactive)

So, "CN(C)CCCNC(=O)c1c(O)c2ccccc2[nH]c1=O" ? Its GI50 was > 100 µM (inactive)

For this compound ( "C=CC/C(C(=O)OC)=C(/C(=O)OC)N(CCC)CCC" ), measured GI50 is > 100 µM (inactive)

Record "Cc1cc2c(=O)c3ccccc3[nH]c2c(C(N)=O)c1C" , field GI50: > 100 µM (inactive)

Record OCC1OC(N2CCN(C3OC(CO)C(O)C(O)C3O)CC2)C(O)C(O)C1O (stereo not drawn) , field GI50: > 100 µM (inactive)

For "CCCn1c2ccccc2c2ccc3c(c21)C(=O)C=CC3=O" the compound record lists GI50 as 1.83 µM (inactive)

# GI50 (compound: "Clc1ccc(OCc2nnc(COc3ccc(OCc4nnc(COc5ccc(Cl)cc5Cl)o4)c(Cl)c3)o2)c(Cl)c1" ) is 37.6 µM (inactive)

# GI50 (compound: "CC[n+]1cnc(N)c2c(-c3ccc(Cl)cc3)cn(-c3ccc(C)cc3)c21" ) is 12.3 µM (inactive)

Sample "CSc1c(C#N)c(S)n(-c2ccc(Cl)cc2)c(=O)c1C#N" ; GI50 observed: > 100 µM (inactive)

Please fill in: GI50 reported for COc1ccc(N2C(=O)/C(=C\c3cc(OC)c(OC)c(OC)c3)SC2c2ccccc2)cc1 (stereo not drawn) = 54.6 µM (inactive)

The measured GI50 associated with "CCOC(=O)N1CCN(Cc2cc(=O)n3cc(C)ccc3n2)CC1" reads > 100 µM (inactive)

====

Can you tell me GI50 for the items I'm about to list?
test system: IGROV-1; experiment: NCI tumour cell line growth inhibition, 48 h
Active and inactive are the calls of the source. No stated cut-off is given here; in the data, active = GI50 up to about 1.1 µM and inactive = higher.

Lab note: Cc1ccc(S(=O)(=O)OC2C3OC(C)(C)OC3OC2C(c2cc(O)c3c(c2O)C(=O)c2ccccc2C3=O)c2cc(O)c3c(c2O)C(=O)c2ccccc2C3=O)cc1 (stereo not drawn) gave GI50 of > 10 µM (inactive)

Documented GI50 of "CN1/C(=C/C(=O)c2ccc(Cl)cc2)Nc2ccccc21" : 38.6 µM (inactive)

Entry N#CC1(Cc2ccccc2)CCCCN1C(=O)c1ccccc1 (stereo not drawn) ; GI50 = > 100 µM (inactive)

So, "Nc1nc(Cl)cc(NCCCNc2cc(Cl)nc(N)n2)n1" ? Its GI50 was > 100 µM (inactive)

Looking up "Cc1ccc(C2=Nc3ccccc3NC(=O)C2)cc1" , I see its GI50 listed as > 100 µM (inactive)

Notebook: "S=C(N/N=C/c1ccccn1)N1CCCCC1" , GI50 read as < 0.01 µM (active)

The compound listed as COC(=O)c1ccc(C(=O)NC(Cc2ccc(Oc3cc(CC(NC(=O)c4ccccc4C(=O)OC)C(=O)OC)ccc3OC)cc2)C(=O)OC)cc1 (stereo not drawn) has a reported GI50 of > 100 µM (inactive)

For record "C[n+]1c(-c2ccccc2)cc2/c(=C\c3ccc([N+](=O)[O-])cc3)c3ccccc3n21" the listed GI50 is 1.39 µM (inactive)

====

tested on: HCT-15; experiment: NCI tumour cell line growth inhibition, 48 h
Record form. Attribute: GI50. Fill in for each entry.

For reference, reported GI50 for N#CCCSC(=S)C1CCCC1=N (centres undefined) stands at > 100 µM

Entry CC(N)Cc1ccc(F)cc1 (centres undefined) , GI50 reported as > 100 µM

Just so you know, measured GI50 for "O=c1[nH]n(CCc2ccccc2CCl)c2ccc([N+](=O)[O-])cc12" came out at > 100 µM

The recorded GI50 for CCC(C)C(NC(=O)C(CCCC[N+](=N)N)NC(=O)C(CCCC[N+](=N)N)NC(=O)c1ccc(OC)cc1)C(=O)NC(CCCC[N+](=N)N)C(=O)N1CCCC1C(=O)NC(CCCCN)C(=O)NC(CC(C)C)C(N)=O (centres undefined) is > 100 µM

Measured GI50, N=C(N)Nc1ccc(CC(N)C(=O)O)cc1 (centres undefined) : > 12.5 µM

Record summary for CCCCC(Sc1cc(Cl)c(C)cc1S(=O)(=O)Nc1nc(N)n[nH]1)C(=O)OC (centres undefined) : reported GI50 = > 10 µM

The reported value for C/C(=C/CC[C@]1(CO)CC[C@]2(C)[C@H](CC[C@@H]3[C@@]4(C)CC[C@H](OC5OC(CO)C(O)C(O)C5OC5OC(CO)C(O)C(O)C5O)C(C)(C)[C@@H]4CC[C@]32C)[C@H]1O)CO (some centres undefined) in terms of GI50 is > 100 µM

# GI50 of "CC(C)=CC(=O)c1c(C(=O)O)nc2ccccc2[n+]1[O-]" = > 100 µM

The recorded GI50 for "c1csc(-c2ccc(-c3cccc4nsnc34)s2)c1" is > 100 µM

GI50 reported for this compound O=C1NCCS(=O)(=O)N[C@@H](CC2=CC=CCC2)C(=O)N2CCCC12 (some centres undefined) : > 100 µM

GI50 reading for Cc1ccc(S(=O)(=O)OC2C3OC(C)(C)OC3OC2C(c2cc(O)c3c(c2O)C(=O)c2ccccc2C3=O)c2cc(O)c3c(c2O)C(=O)c2ccccc2C3=O)cc1 (centres undefined) : > 10 µM

GI50 recorded for this compound, "CC1(C)OC[C@@]2([C@@H]3CC[C@@H](C3)C2(C)C)N1O" , is > 100 µM

GI50 measured on "CCOC(=O)c1c(C)c(C)n2c1NC(=O)C2" = > 61.1 µM

Entry under test: CSc1nc(NC2OC(COC(C)=O)C(OC(C)=O)C(OC(C)=O)C2OC(C)=O)c2c(n1)OCC2=O (centres undefined) . Its GI50 was > 100 µM

So for "O=C(Cc1ccccc1)NN1C(=O)/C(=C\c2cccc([N+](=O)[O-])c2)S/C1=N\c1ccccc1" , the logged GI50 turned out to be > 100 µM

"COc1ccc(NC(=S)Nc2c(C)n(C)n(-c3ccccc3)c2=O)cc1" has a reported GI50 of > 100 µM

Per the records, this compound ( "Cc1ccc(C(=O)Nc2ccc(CP(=O)(O)O)cc2)cc1NC(=O)Nc1cc(C(=O)Nc2ccc(CP(=O)(O)O)cc2)ccc1C" ) has GI50 equal to > 100 µM

Noted for "CSc1ccsc1-c1sc(-c2cc(SC)c(-c3sc(-c4cc(SC)c(-c5sccc5SC)s4)cc3SC)s2)cc1SC" : its GI50 reads > 100 µM

In plain terms, "C=CCN1C(=O)N/C(=C\c2ccc(Cl)cc2)C1=O" has a documented GI50 of > 100 µM

====

tested on: LOX IMVI; assay: NCI tumour cell line growth inhibition, 48 h
The source made the active and inactive calls. No stated cut-off is given here; in the data, active = GI50 up to about 1.1 µM and inactive = higher.
propertyName: GI50

The value of GI50 measured for the molecule "CC(=O)O[C@H]1C(=O)[C@@]2(C)[C@H]([C@H](OC(=O)c3ccncc3)[C@]3(O)C[C@H](OC(=O)[C@H](O)[C@@H](NC(=O)c4ccccc4)c4ccccc4)C(C)=C1C3(C)C)[C@]1(OC(C)=O)CO[C@@H]1C[C@@H]2O" turned out to be 1.42 µM (inactive)

Record "O=c1[nH]nc2c3n[nH]c(=O)n3c3ccccc3n12" . Reported GI50: > 100 µM (inactive)

Kindly note the recorded GI50 for CC1(C)CCC[C@@]2(C)C1CC[C@H]1CC(O)C3(C)CCC12C3 (stereo not given in full) , which is 15.4 µM (inactive)

Per the records, this molecule ( "Cc1nc(C(N)=S)sc1C(=O)/C=C/c1cccc(O)c1" ) has GI50 equal to 45.2 µM (inactive)

Record summary for COc1cc2c3c4c1OCc1c5c(cc(c1-4)CC3[N+](C)(C)CC2)OCO5 (stereo not given) : reported GI50 = > 100 µM (inactive)

The molecule listed as CC(=O)OCC1OC(n2c(N)c(C#N)c(C)c(C#N)c2=S)C(OC(C)=O)C(OC(C)=O)C1OC(C)=O (stereo not given) has a reported GI50 of > 100 µM (inactive)

Sample "CN1S(=O)(=O)N(C)P12(N=P(CP(=NP13(N(C)S(=O)(=O)N1C)N(C)S(=O)(=O)N3C)(c1ccccc1)c1ccccc1)(c1ccccc1)c1ccccc1)N(C)S(=O)(=O)N2C" ; GI50 observed: > 100 µM (inactive)

Reported GI50 ( "Cc1ccc(S(=O)(=O)NNC(=O)c2cc(C)c(C)cc2N)cc1" ) = > 100 µM (inactive)

The reported GI50 of the molecule "Cc1ccc2c(ccc3c[n+]4ccccc4c(C)c32)c1.[O-][Cl+3]([O-])([O-])[O-]" was 11.7 µM (inactive)

Summary for this molecule, COC(=O)c1ccc(C(=O)NC(Cc2ccc(Oc3cc(CC(NC(=O)c4ccccc4C(=O)OC)C(=O)OC)ccc3OC)cc2)C(=O)OC)cc1 (stereo not given) : GI50 is > 100 µM (inactive)

GI50 for "Cc1cc2c(=O)c3ccccc3[nH]c2c(C(N)=O)c1C" is > 100 µM (inactive)

Note to self: GI50 recorded for c1ccc2[nH]c(CNc3ccc(C4C[Se]N=N4)cc3)nc2c1 (stereo not given) was 40.6 µM (inactive)

Summary for this molecule, CC(N)Cc1ccc(F)cc1 (stereo not given) : GI50 is > 100 µM (inactive)

According to the records, this molecule "c1csc(-c2ccc(-c3cccc4nsnc34)s2)c1" displays GI50 of > 100 µM (inactive)

The recorded GI50 for entry Fc1ccc(C(OCCN2CCC3CCC(C2)N3C/C=C/c2cccs2)c2ccc(F)cc2)cc1 (stereo not given) equals 6.38 µM (inactive)

GI50 reported for this molecule "Cc1ccc(-c2c(C#N)c(N)[nH]c(=S)c2C#N)cc1" : 42.2 µM (inactive)

Form: molecule = "COc1ccc(-c2cc(O)c3cc4c(cc3n2)OCO4)cc1" ; GI50 = > 100 µM (inactive)

get_value(item= COc1ccc(C2SC(=N)Nc3c2c(C)nn3C(=O)c2ccncc2)cc1OC (stereo not given) , readout=GI50) returns > 10 µM (inactive)

GI50 recorded for this molecule, "O=C(O)c1nnsc1-c1ccc(-c2snnc2C(=O)O)cc1" , is 31.8 µM (inactive)

Record N#CC(NNC(=O)Cc1ccccc1)c1c(O)ccc2ccccc12 (stereo not given) , field GI50: 1.47 µM (inactive)

Entry N#CC1=C(c2ccccc2)NN(Cc2ccccc2)C(c2ccc(Cl)cc2)CC1=O (stereo not given) — recorded GI50 = 18 µM (inactive)

Record "COc1ccc(C(=O)/C=C2\C(=O)Nc3ccc(Br)cc32)cc1" . Reported GI50: 1.99 µM (inactive)

Given item CCC(C)C(NC(=O)C(CCCC[N+](=N)N)NC(=O)C(CCCC[N+](=N)N)NC(=O)c1ccc(OC)cc1)C(=O)NC(CCCC[N+](=N)N)C(=O)N1CCCC1C(=O)NC(CCCCN)C(=O)NC(CC(C)C)C(N)=O (stereo not given) , the value recorded as its GI50 is > 100 µM (inactive)

Sure, the documented GI50 for CC1OC(n2cc(F)c(=O)[nH]c2=O)CCC1=O (stereo not given) is 88.1 µM (inactive)

Summary for this molecule, "COC(=O)c1sc(C(=O)OC)c2c1CSC2" : GI50 is > 94.6 µM (inactive)
